Numbers sourced from PubChem BioAssay (NCI).

Tested on: HL-60(TB) leukemia
Assay: NCI-60 one-dose screen, 48 h (100 = growth as untreated, 0 = no growth, -100 = all killed)
Conditions: 10 µM unless noted
Protocol: Growth inhibition of the HL-60(TB) human tumor cell line is measured as a screen for anti-cancer activity. Cells are grown in 96 well plates and exposed to the test compound for 48 hours. Compounds are tested at a single concentration, which is 10^-5 M for most compounds. The reported endpoint is percent growth (GI% or GIPRCNT), where numbers from 0 - 100% represent growth inhibition, and numbers from -100% - 0 represent cell death. For example, a value of 40 represents 60% growth inhibition. […]
This is part of a sample that, as a whole, favours compounds with a hit. Of some 83,000 tested, about 20% had one in any assay.
Below, each entry is listed with its recorded growth.

molecule	growth [%]
O=C(O)c1occ(Cl)c1Cl	75.3
CCc1ccc2c(c1)N(CCO)C1=C(C(=O)OC1)C2c1ccccc1 (stereo not drawn)	94.9
NC(=O)c1c(NC(=O)COC(=O)Cc2ccccc2F)sc2c1CCC2	135
NNCCc1ccc(NC(=O)CCCc2ccc(/C=C/C(=O)NO)cc2)cc1	18.3
COc1c(Cl)c2c(c(OC)c1OC)-c1ccc(SC)c(=O)cc1[C@@H](NC(=O)OCC(F)(F)F)CC2	-35.4
CCCCNC1=C(OCC)C(=O)c2ccccc2C1=O	101
Clc1ccc2c(c1)-n1cccc1C(c1ccc3ccccc3c1)=NC2	76.9
COc1ccc(C(=O)c2cc3c(N)c(C(=O)Nc4cccc(Cl)c4)sc3nc2C)cc1	-45.3
Nc1n[nH]c2ccc([C@@H]3Nc4ccc5cn[nH]c5c4[C@H]4C5CCC(C5)[C@@H]34)cc12 (stereo partly drawn)	-29.2
Cc1[nH]c(-c2nc3ccccc3[nH]2)c(C)c1C(=O)N1CCc2sccc2C1	99.3
COc1cc(OCc2cccc(-c3ccccc3)c2C)cc(OC)c1CN1CCCCC1C(=O)NCCOCCOCCN (stereo not drawn)	-42.4
Cc1cn(-c2cc(NC(=O)c3cncc(C#Cc4c(N)ncc5ccc(F)cc45)c3)cc(C(F)(F)F)c2)cn1	9.54
CC1=CC(=O)C=CC1=Nc1ccc(N(C)C)cc1	-1.75
COc1ccc(Cl)cc1C(=O)Nc1nc2ccc(Cl)cc2s1	103
CN1C(=O)CN2CCc3ccccc3C2c2cc(Cl)ccc21 (stereo not drawn)	86.8
O=C1CCCCN1CCCCC#Cc1cccc(C#Cc2cccnc2)c1	-23.2
CCNS(=O)(=O)c1ccc(C)cc1	72
COC(=O)Nc1ccc(NC(=O)OC)cc1	95.9
CCOC(=O)n1cc(-c2nonc2-c2cn(C)c3ccccc23)c2ccccc21	1.6
COC(=O)[C@H](C)NC(=O)[C@@H](OC)[C@@H]1Cc2cc3cc(OC4CC(OC5CC(O)C(O)C(C)O5)C(O)C(C)O4)c(C)c(O)c3c(O)c2C(=O)[C@H]1OC1CC(OC2CC(OC3CC(C)(O)C(O)C(C)O3)C(O)C(C)O2)C(O)C(C)O1 (stereo partly drawn)	20.8
CC/C=C\C/C=C\C[C@H](O)C/C=C1/C(=O)C=C[C@@H]1C/C=C\CCCC(=O)O	32.6
COc1cc(/C=C/c2cc(/C=C/c3ccc(O)c(OC)c3)n(C(=O)Cc3ccccc3)n2)ccc1O	-9.93
C=C1C(=O)O[C@H]2[C@H]1CC/C(CNS(=O)(=O)c1cccc3ccccc13)=C\CC[C@@]1(C)O[C@@H]21	-31.9
CN1CCN(C2=C(Cl)C(=O)c3ccccc3C2=O)CC1	24.8
COc1ccc(C(O)c2cc3c(N)c(C(=O)Nc4cccc(Cl)c4C)sc3nc2C)cc1 (stereo not drawn)	-51
Cc1cn(-c2cc(NC(=O)c3cccc(C#Cc4cccc5[nH]nc(N)c45)c3)cc(C(F)(F)F)c2)cn1	12.5
O=C(N/N=C/c1coc2ccccc2c1=O)c1cc2oc(-c3ccccc3)cc2[nH]1	99
CC(C)(C)OC(=O)N1C/C(=C\c2ccoc2)C(=O)/C(=C/c2ccoc2)C1	87.6
N#CC1=C(N2CCOCC2)NC2c3ccccc3Sc3ccccc3N2C1=N (stereo not drawn)	89.8
CC(C)C1=C[C@@]23CC[C@H]4[C@](C)(COCCC#N)CCC[C@]4(C)[C@H]2C[C@@H]1[C@@H]1[C@H]3[C@@H](OCCC#N)CC[C@@H]1OCCC#N	-42.7
CCc1ccc(C(c2ccc(CC)cc2)C(Cl)(Cl)CCl)cc1	77.2
Cc1cc(O)cc2c1[C@H]1CC[C@]3(C)[C@@H](O)CC[C@H]3[C@@H]1C=C2	70.6
CCOc1cccc(/C=N/NC(=O)c2cccc(Nc3ccnc(C(F)(F)F)c3)c2)c1O	14.1
Cc1nc2c(nnn2-c2ccccc2)c2nc(-c3ccc(Cl)cc3)oc(=O)c12	98.8
CC(C)c1ccc(C(=O)Nc2sc3cc(O)ccc3c2C#N)cc1	-6.25
CC1(C)CC[C@]23CC[C@]4(C)[C@H](CC[C@@H]5[C@@]6(C)CCNCC(C)(C)[C@@H]6CC[C@]54C)[C@H]2[C@H]1OC3	23.6
Nc1nc(Nc2ccccc2SSc2ccccc2Nc2nc(N)nc(-c3cccc(Cl)c3)n2)nc(-c2cccc(Cl)c2)n1	99.3
C[C@H]1c2ccccc2CN1CCCOc1cc2c(cc1OCC1CC1)C1(CCCC1)C(N)=N2	31
